Data provenance: patent US20090203709A1

assay.details: Study M04-710 pharmacokinetics, multiple-dose escalation, non-hematologic malignancies
Type: in vivo, human
experimental.setup: human, plasma, oral, 0.1 mg/kg, Study Day 15; 0.10 mg/kg; mean ± SD; read-out: AUC0-24
parameter.measured: AUC(0-t) (ng·h/mL)
Provide the reading as a plain figure in ng·h/mL.

Q. I have this compound here, Cc1ccc(F)c(NC(=O)Nc2ccc(-c3cccc4[nH]nc(N)c34)cc2)c1 , and I need its recorded AUC(0-t).
A. 2100

###

assay.details: PK comparison across studies M04-710 and M05-756 (race, cancer type)
Type: in vivo, human
experimental.setup: human, plasma, oral, Hematologic malignancies, N 17; adjusted mean (% CV); read-out: T1/2 (converted)
parameter.measured: half-life (h)
Quick note: give the figure in h, leave out the unit.

Q. Can you share its half-life? I mean this compound: Cc1ccc(F)c(NC(=O)Nc2ccc(-c3cccc4[nH]nc(N)c34)cc2)c1 [ABT-869]
A. 15.7
